Values were extracted from the supplement of paper PMC9233669.

Test system: biotinyl-Met-oxazolone
Assay: self-aminoacylation, catalytic enhancement (BMO) (fold over background); higher = more active; k-Seq, kA / k0A0; sequences stand for … in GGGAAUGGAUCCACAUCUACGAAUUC…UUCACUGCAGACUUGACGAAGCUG
Variants at the floor of the assay were thinned out.

[
  {
    "macromolecule.sequence": "AAGUCUGCUAAUAGUCGCAAG [Fam3.1 aminoacylation ribozyme variant]",
    "self-aminoacylation": 2.44
  },
  {
    "macromolecule.sequence": "UCACACUUCACGCAAUCGGUC [Fam1B.1 aminoacylation ribozyme variant]",
    "self-aminoacylation": 0.81
  },
  {
    "macromolecule.sequence": "CUACUUCAAAUAAUCGGGCUG [Fam1A.1 aminoacylation ribozyme variant]",
    "self-aminoacylation": 0.607
  },
  {
    "macromolecule.sequence": "AUACUUCAAACAAUCGGUCAG [Fam1A.1 aminoacylation ribozyme variant]",
    "self-aminoacylation": 0.672
  },
  {
    "macromolecule.sequence": "CUACUUCAAACAAUCGGGCUC [Fam1A.1 aminoacylation ribozyme variant]",
    "self-aminoacylation": 1.08
  },
  {
    "macromolecule.sequence": "CUACUUCAAACAAUCGUCCUG [Fam1A.1 aminoacylation ribozyme variant]",
    "self-aminoacylation": 0.407
  },
  {
    "macromolecule.sequence": "ACUCACCUAGGUAAUCGGGUG [Fam2.2 aminoacylation ribozyme variant]",
    "self-aminoacylation": 4.2
  },
  {
    "macromolecule.sequence": "UCCCACUUCAAGCAAUCGGUC [Fam1B.1 aminoacylation ribozyme variant]",
    "self-aminoacylation": 1.46
  },
  {
    "macromolecule.sequence": "CCACACUUCAAGCAAUCCCUC [Fam1B.1 aminoacylation ribozyme variant]",
    "self-aminoacylation": 0.846
  },
  {
    "macromolecule.sequence": "CCACACAUCAAGGAAUCGGUC [Fam1B.1 aminoacylation ribozyme variant]",
    "self-aminoacylation": 0.804
  },
  {
    "macromolecule.sequence": "AAGUUUGCUAAUAGUCGCUAC [Fam3.1 aminoacylation ribozyme variant]",
    "self-aminoacylation": 0.57
  },
  {
    "macromolecule.sequence": "CCACACUUCAAGCAUUCGCUC [Fam1B.1 aminoacylation ribozyme variant]",
    "self-aminoacylation": 2.42
  },
  {
    "macromolecule.sequence": "CUACUUCAGAGAAUCGGUCUG [Fam1A.1 aminoacylation ribozyme variant]",
    "self-aminoacylation": 0.951
  },
  {
    "macromolecule.sequence": "AUGUUUGCUAAUGGUCGCAAG [Fam3.1 aminoacylation ribozyme variant]",
    "self-aminoacylation": 0.875
  },
  {
    "macromolecule.sequence": "AAGUUUGCUAAUAGUCGUAAC [Fam3.1 aminoacylation ribozyme variant]",
    "self-aminoacylation": 0.658
  },
  {
    "macromolecule.sequence": "CUUCACCUAGGUCACCGGGUG [Fam2.2 aminoacylation ribozyme variant]",
    "self-aminoacylation": 3.54
  },
  {
    "macromolecule.sequence": "AUUCACCUUGAUCAUCGGGUG [Fam2.2 aminoacylation ribozyme variant]",
    "self-aminoacylation": 3.26
  },
  {
    "macromolecule.sequence": "GAGUUUGCUAGUAGUCGCAAG [Fam3.1 aminoacylation ribozyme variant]",
    "self-aminoacylation": 1.28
  }
]
